Molecular target: human TLR9 (Homo sapiens, UniProt Q9NR96)
Construct: host or cells: HEK-Blue cells (HEK293-derived reporter line)
Sequence (Q9NR96 26-1032): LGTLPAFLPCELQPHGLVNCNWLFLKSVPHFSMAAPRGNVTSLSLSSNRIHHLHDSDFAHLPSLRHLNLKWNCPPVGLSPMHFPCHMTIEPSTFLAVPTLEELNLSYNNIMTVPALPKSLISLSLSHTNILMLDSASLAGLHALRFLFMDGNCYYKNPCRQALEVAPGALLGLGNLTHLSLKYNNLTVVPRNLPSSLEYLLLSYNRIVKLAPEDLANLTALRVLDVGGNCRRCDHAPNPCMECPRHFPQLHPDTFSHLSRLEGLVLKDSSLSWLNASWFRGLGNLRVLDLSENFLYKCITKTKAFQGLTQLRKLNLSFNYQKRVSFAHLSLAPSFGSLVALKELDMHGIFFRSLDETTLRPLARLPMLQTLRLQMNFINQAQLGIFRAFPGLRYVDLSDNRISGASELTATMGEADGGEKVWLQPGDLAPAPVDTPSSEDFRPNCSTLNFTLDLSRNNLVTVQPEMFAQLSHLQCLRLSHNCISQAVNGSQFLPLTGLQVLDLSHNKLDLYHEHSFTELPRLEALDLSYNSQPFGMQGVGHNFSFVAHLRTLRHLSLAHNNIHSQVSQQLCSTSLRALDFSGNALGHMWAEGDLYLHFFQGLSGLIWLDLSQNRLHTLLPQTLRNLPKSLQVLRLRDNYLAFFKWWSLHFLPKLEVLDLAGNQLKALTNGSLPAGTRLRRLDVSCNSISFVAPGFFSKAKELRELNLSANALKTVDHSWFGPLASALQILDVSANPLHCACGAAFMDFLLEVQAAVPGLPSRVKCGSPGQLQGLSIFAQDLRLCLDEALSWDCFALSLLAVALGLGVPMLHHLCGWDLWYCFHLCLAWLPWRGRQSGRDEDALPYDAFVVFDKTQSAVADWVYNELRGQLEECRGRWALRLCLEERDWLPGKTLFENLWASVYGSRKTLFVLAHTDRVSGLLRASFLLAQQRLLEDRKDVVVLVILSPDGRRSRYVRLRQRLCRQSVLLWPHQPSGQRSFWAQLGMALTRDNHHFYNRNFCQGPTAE
Assay: TLR9 inhibition reporter assay (HEK-Blue cells, secreted embryonic alkaline phosphatase reporter)
Format: cell-based
Conditions: HEK-Blue cells overexpressing human TLR9, stimulated with ODN2006 5 nM, 22 hour incubation, reporter readout
Text: TLR7/8/9 Inhibition Reporter Assays HEK-Blue™-cells (Invivogen) overexpressing human TLR7, TLR8 or TLR9 receptors were used for screening inhibitors of these receptors using an inducible SLAP (secreted embryonic alkaline phosphatase) reporter gene under the control of the […] minimal promoter fused to five NF-κB and AP-1-binding sites. […]
Endpoint label: log10 IC50 (log10 of the value in nM)
Plainly stated, the numbers are log10 of IC50 given in nM.

q: // query log10 IC50 value for entry CC(C)N1C2CCC1CC(N1CCC(c3cc(F)c4nc(-c5ccc(S(C)(=O)=O)cc5)n(C)c4c3)CC1)C2 (single isomer, unassigned) [Example 107]
a: 2.43

q: // query log10 IC50 value for entry Cc1cc(CN2CCC(c3cc(C)c4nc(-c5ccc(S(C)(=O)=O)cc5)n(C)c4c3)CC2)cc(C)n1
a: 3.40

q: // query log10 IC50 value for entry CC(C)N1CCC(N2CCC(c3cc(F)c4c(c3)nc(-c3ccc(S(C)(=O)=O)cc3)n4C)CC2)CC1
a: 2.00

q: // query log10 IC50 value for entry Cc1cc(-c2ccc(N3CCN(C(C)C)CC3)cc2)cc2c1nc(-c1ccc(S(C)(=O)=O)cc1)n2C
a: 2.48

q: // query log10 IC50 value for entry CS(=O)(=O)c1ccc(-c2nc3c(F)cc(-c4ccc(CN5CCC(N6CCCC6)CC5)cc4)cc3n2C2CC2)cc1
a: 2.15

q: // query log10 IC50 value for entry CC(C)CN1CCC(N2CCC(c3ccc4nc(-c5ccc(S(C)(=O)=O)cc5)n(C5CC5)c4c3F)CC2)CC1
a: 1.81

q: // query log10 IC50 value for entry Cc1cc2nc(-c3ccc(S(C)(=O)=O)cc3)n(C)c2cc1C1CCN(C2CCN(C(C)C)CC2)CC1
a: 2.26

q: // query log10 IC50 value for entry Cc1cc(C2CCN(C3CCN(CC(C)C)CC3)CC2)cc2[nH]c(-c3ccc(S(C)(=O)=O)c(Br)c3)nc12
a: 1.64

q: // query log10 IC50 value for entry COc1ccc(-c2nc3ccc(C4CCN(C5CCN(CC(C)C)CC5)CC4)cc3n2C)cc1OC
a: 2.11

q: // query log10 IC50 value for entry COc1ccc(-c2nc3cc(C4CCN(C5CCN(C(C)C)CC5)CC4)ccc3n2C)cc1OC
a: 2.40

q: // query log10 IC50 value for entry CS(=O)(=O)c1ccc(-c2nc3c(F)cc(-c4ccc(CN5CC6(C5)CN(C5CCOCC5)C6)cc4)cc3n2C2CC2)cc1
a: 1.89

q: // query log10 IC50 value for entry Cc1cc(C2CCN(C3CCN(CC(C)C)CC3)CC2)cc2[nH]c(-c3ccccc3OC(F)(F)F)nc12 [Example 80, tris(2,2,2-trifluoroacetate)]
a: 2.56

q: // query log10 IC50 value for entry Cc1cc(-c2cccc(CN3CCC(N4CCCC4)CC3)c2)cc2c1nc(-c1ccc(S(C)(=O)=O)cc1)n2C1CC1
a: 1.66

q: // query log10 IC50 value for entry CC(C)N1C2CCC1CC(N1CCC(c3cc4c(cc3F)nc(-c3ccc(S(C)(=O)=O)cc3)n4C)CC1)C2 (single isomer, unassigned) [Example 97]
a: 1.90
